Listing of recorded nuclear beta-catenin stimulation by entry.
# procedure details: stimulators of nuclear beta-catenin in C2C12, primary screen, imaging, WNT3A-conditioned medium, mouse C2C12, NPC library (AID 1117326); note: reference of the scale not given here
# condition info: stimulation, at 2 µM, stronger effect = higher value
measured metric: nuclear beta-catenin stimulation (%)

INSERT INTO results (molecule, measured_metric, reported_measurement) VALUES
  ('CC(C(=O)O)c1ccc(C(=O)c2ccccc2)s1 (centres undefined)', 'nuclear beta-catenin stimulation', 0.1),
  ('C=CC(=O)Nc1cc2c(Nc3ccc(F)c(Cl)c3)ncnc2cc1OCCCN1CCOCC1', 'nuclear beta-catenin stimulation', 9.2),
  ('COP(=O)(OC)OC(c1ccc(Cl)cc1)P(=O)(OC)OC (centres undefined)', 'nuclear beta-catenin stimulation', 1.2),
  ('CCCCNc1ccc(C(=O)OCCOCCOCCOCCOCCOCCOCCOCCOCCOC)cc1', 'nuclear beta-catenin stimulation', 0.5),
  ('CNC(=O)c1c(I)c(NC(C)=O)c(I)c(C(=O)O)c1I', 'nuclear beta-catenin stimulation', 0.8),
  ('OC1(c2ccc(Cl)c(C(F)(F)F)c2)CCN(CCCC(c2ccc(F)cc2)c2ccc(F)cc2)CC1', 'nuclear beta-catenin stimulation', 27.1),
  ('CCC(C)(Oc1ccc(C2(c3ccc(OC(C)(CC)C(=O)O)cc3)CCCCC2)cc1)C(=O)O (centres undefined)', 'nuclear beta-catenin stimulation', -1.3),
  ('CC1(O)CCC(C(C)(C)O)CC1 (centres undefined)', 'nuclear beta-catenin stimulation', 1.1),
  ('O=C(OCCOCCO)c1ccccc1Nc1cccc(C(F)(F)F)c1', 'nuclear beta-catenin stimulation', -0.5),
  ('COc1cc(N)c(Cl)cc1C(=O)NC1CCN(CCCOc2ccc(F)cc2)CC1OC (centres undefined)', 'nuclear beta-catenin stimulation', 3.1),
  ('O=C(O)[C@H](O)c1ccccc1', 'nuclear beta-catenin stimulation', 3.1),
  ('O=C(Nc1ccc(S(=O)(=O)N2CCOCC2)cc1)c1cc(Cl)ccc1NS(=O)(=O)c1ccc(Cl)s1', 'nuclear beta-catenin stimulation', -0.5),
  ('CC1(CN2CCC(n3c(=O)[nH]c4ccccc43)CC2)OCc2ccccc2-n2cccc21 (centres undefined)', 'nuclear beta-catenin stimulation', 2),
  ('C[C@]1(Cn2ccnn2)[C@H](C(=O)O)N2C(=O)C[C@H]2S1(=O)=O', 'nuclear beta-catenin stimulation', 0.1);

Entry source: PubChem BioAssay
